Here the recorded GI50 is given for each entry.
Tested on: SF-539
Test: NCI tumour cell line growth inhibition, 48 h
The source made the active and inactive calls. Cut-off read from the data, not from the text of the source: active = GI50 up to about 1.1 µM and inactive = higher. Square brackets hold non-standard residues; d marks the D form. Peptide text beside a SMILES is read from it. * marks the point of attachment. Phe(4-NO2) = N[CH](Cc1ccc([N+](=O)[O-])cc1)C(=O)O; Boc = CC(C)(C)OC(=O)*

Some compounds with known GI50 results, for comparison:
O=C(Oc1c(I)ccccc1=O)c1ccc([N+](=O)[O-])cc1 | 17.9 µM (inactive)
CNC(=O)CCC(NC(=O)OC(C)(C)C)C(=O)NC(Cc1ccc([N+](=O)[O-])cc1)C(=O)NCC(=O)NC (centres undefined) (Boc-Glu(NHMe)-[Phe(4-NO2)]-Gly-NHMe; configuration not given here) | > 100 µM (inactive)
COc1cc(NS(=O)(=O)c2ccc(C)cc2)c2nccnc2c1 | 29.2 µM (inactive)

Bench note, SF-539: entry NC(=O)N/C=C1\C(=O)Oc2ccccc2C1=O , its GI50 = 85.9 µM (inactive)
